- targetOfAssay: Human SIRPα v1 (antigen of the Octet and Biacore affinity measurements) (human, UniProt P78324 31-370, limits assumed)
- Sequence (P78324 31-370 limits assumed): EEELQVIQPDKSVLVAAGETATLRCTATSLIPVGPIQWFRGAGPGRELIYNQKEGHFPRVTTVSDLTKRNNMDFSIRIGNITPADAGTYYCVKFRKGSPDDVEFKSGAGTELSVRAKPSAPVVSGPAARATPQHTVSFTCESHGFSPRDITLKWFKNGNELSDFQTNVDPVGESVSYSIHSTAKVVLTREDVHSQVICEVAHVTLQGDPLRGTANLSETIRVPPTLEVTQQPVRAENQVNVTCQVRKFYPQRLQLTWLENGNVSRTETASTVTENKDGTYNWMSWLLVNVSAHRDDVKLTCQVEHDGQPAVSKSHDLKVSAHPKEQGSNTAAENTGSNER
- assayProcedure: BLI (Octet), 1:1 binding model
Parameter: Kd. Scope: all listed entries.
Reply with just the number (in nM).

Examples with their reported Kd follow.
073c (antibody, V domains shown, also called chimeric antibody 073c) VH: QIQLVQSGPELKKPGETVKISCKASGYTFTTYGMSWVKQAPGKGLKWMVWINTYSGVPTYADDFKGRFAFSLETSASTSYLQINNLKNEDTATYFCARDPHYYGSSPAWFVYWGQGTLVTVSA VL: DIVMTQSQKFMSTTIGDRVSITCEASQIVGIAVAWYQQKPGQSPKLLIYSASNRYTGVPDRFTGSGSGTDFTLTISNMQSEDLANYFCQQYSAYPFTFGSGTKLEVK :: 6.07
059c (antibody, V domains shown, also called chimeric antibody 059c) VH: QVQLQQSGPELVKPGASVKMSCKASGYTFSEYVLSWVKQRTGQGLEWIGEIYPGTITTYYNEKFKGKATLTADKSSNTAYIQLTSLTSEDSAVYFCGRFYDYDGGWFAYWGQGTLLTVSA VL: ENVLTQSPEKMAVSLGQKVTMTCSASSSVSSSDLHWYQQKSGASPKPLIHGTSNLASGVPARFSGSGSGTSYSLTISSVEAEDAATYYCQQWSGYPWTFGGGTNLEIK :: 2.25

We next turn to a different binder, shown below.
## Task Sample hu1H9G4 (antibody, V domains shown) VH: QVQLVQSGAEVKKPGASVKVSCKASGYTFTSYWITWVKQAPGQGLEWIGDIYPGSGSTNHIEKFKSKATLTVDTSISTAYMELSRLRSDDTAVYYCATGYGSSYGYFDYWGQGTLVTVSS VL: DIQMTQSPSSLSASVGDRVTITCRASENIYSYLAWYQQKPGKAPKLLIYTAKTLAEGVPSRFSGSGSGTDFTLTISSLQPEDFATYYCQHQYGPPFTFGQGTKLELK — what was its Kd?
## Result 3.48
